Source: the supplement of paper PMC13207355

# System: E34 (patient-derived glioblastoma stem cells of proneural subtype)
# Experiment summary: phenotypic distance (Euclidean, principal components) from DMSO controls (arbitrary units); higher = stronger morphological change
# Experimental context: 37 nM; exposure time: 72 h
Counter-ions that a name gives are not always drawn.
Quantity kind: phenotypic distance

Compound	Recorded measurement
C[C@H]1O[C@@H](O[C@H]2[C@@H](O)C[C@H](O[C@H]3[C@@H](O)C[C@H](O[C@H]4CC[C@@]5(C)[C@H](CC[C@@H]6[C@@H]5C[C@@H](O)[C@]5(C)[C@@H](C7=CC(=O)OC7)CC[C@]65O)C4)O[C@@H]3C)O[C@@H]2C)C[C@H](O)[C@@H]1O [Digoxin]	4.76
NC(=O)c1cccc2cn(-c3ccc([C@@H]4CCCNC4)cc3)nc12 [Niraparib]	0.587
Cc1ncc(CO)c(CO)c1O [Pyridoxine hydrochloride]	0.991
Cc1c2ccncc2c(C)c2c1[nH]c1ccccc12 [Ellipticine]	0.492
CC1(C)S[C@@H]2[C@H](NC(=O)Cc3ccccc3)C(=O)N2[C@H]1C(=O)O [Benzylpenicillin sodium]	0.561
CC(=O)O[C@H]1C[C@H](O[C@H]2[C@@H](O)C[C@H](O[C@H]3[C@@H](O)C[C@H](O[C@H]4CC[C@@]5(C)[C@H](CC[C@@H]6[C@@H]5C[C@@H](O)[C@]5(C)[C@@H](C7=CC(=O)OC7)CC[C@]65O)C4)O[C@@H]3C)O[C@@H]2C)O[C@H](C)[C@H]1O[C@@H]1O[C@H](CO)[C@@H](O)[C@H](O)[C@H]1O [Lanatoside C]	3.49
COc1ccc([C@@H]2CC(=O)c3c(O)cc(O[C@@H]4O[C@H](CO[C@@H]5O[C@@H](C)[C@H](O)[C@@H](O)[C@H]5O)[C@@H](O)[C@H](O)[C@H]4O)cc3O2)cc1O [Hesperidin]	0.595
OCCN1CCN(CCCN2c3ccccc3Sc3ccc(Cl)cc32)CC1 [Perphenazine]	0.902
C=C(C)[C@H]1Cc2c(ccc3c2O[C@@H]2COc4cc(OC)c(OC)cc4[C@@H]2C3=O)O1 [Rotenone]	0.736
CC[C@H]1CN2CCc3cc(OC)c(OC)cc3[C@@H]2C[C@@H]1C[C@H]1NCCc2cc(OC)c(OC)cc21 [Emetine dihydrochloride hydrate]	0.904
CC(NCCC(c1ccccc1)c1ccccc1)c1ccccc1 (configuration not stated) [Fendiline hydrochloride]	0.586
CCCCCC[C@H]1C(=O)O[C@H](C)[C@H](NC(=O)c2cccc(NC=O)c2O)C(=O)O[C@@H](C)[C@@H]1OC(=O)CC(C)C [Antimycin A]	1.7
COc1cc([C@@H]2c3cc4c(cc3[C@H](O)[C@H]3COC(=O)[C@H]23)OCO4)cc(OC)c1OC [Podophyllotoxin]	6.57
COc1cc2c[n+](C)c3c4cc5c(cc4ccc3c2cc1OC)OCO5 [Nitidine chloride]	0.901
C[C@@H]1CN([C@H]2CC[C@](C#N)(c3ccc(F)cc3)CC2)CC[C@]1(C(=O)O)c1ccccc1 [Levocabastine hydrochloride]	0.93
COc1cccc2c1C(=O)c1c(O)c3c(c(O)c1C2=O)C[C@@](O)(C(C)=O)C[C@@H]3O[C@H]1C[C@H](N)[C@H](O)[C@H](C)O1 [Daunorubicin hydrochloride]	4.68
COc1cccc2c1C(=O)c1c(O)c3c(c(O)c1C2=O)C[C@@](O)(C(=O)CO)C[C@@H]3O[C@H]1C[C@H](N)[C@H](O)[C@H](C)O1 [Doxorubicin hydrochloride]	4.3
CO[C@H]1C(=O)[C@]2(C)[C@@H](OC)C[C@H]3OC[C@@]3(OC(C)=O)[C@H]2[C@H](OC(=O)c2ccccc2)[C@]2(O)C[C@H](OC(=O)[C@H](O)[C@@H](NC(=O)OC(C)(C)C)c3ccccc3)C(C)=C1C2(C)C [Cabazitaxel]	5.3
O=C1c2c(O)ccc(O)c2C(=O)c2c(NCCNCCO)ccc(NCCNCCO)c21 [Mitoxantrone]	4.33
CC1CNc2c(cccc2S(=O)(=O)N[C@@H](CCCNC(=N)N)C(=O)N2CC[C@@H](C)C[C@@H]2C(=O)O)C1 (some centres not stated) [Argatroban]	0.842
Nc1ccn([C@@H]2O[C@H](CO)[C@@H](O)C2(F)F)c(=O)n1 [Gemcitabine HCl]	3.41
NCCNc1ccc(NCCN)c2c1C(=O)c1ccncc1C2=O [Pixantrone dimaleate]	1.52
OC(c1cc(C(F)(F)F)nc2c(C(F)(F)F)cccc12)C1CCCCN1 (configuration not stated) [Mefloquine hydrochloride]	0.73
S=c1[nH]cnc2nc[nH]c12 [Mercaptopurine]	0.783
O=c1[nH]c(=O)n([C@H]2C[C@H](O)[C@@H](CO)O2)cc1I [Idoxuridine]	0.845
COc1cc2ncnc(Nc3cccc(Br)c3)c2cc1OC	1.15
CC[N+](CC)(CC)CCOc1ccc(/C=C/c2ccccc2)cc1 [MG 624]	1

---

Entries and their surviving fraction values follow.
# Test system: E31 (patient-derived glioblastoma stem cells of proneural subtype);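 further: nuclei counted by high-content imaging of Hoechst-stained cells in laminin-coated 384-well plates, relative to 0.1% DMSO vehicle wells, with staurosporine as cell-death control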
# Experiment summary: surviving fraction (nuclei count normalised to DMSO); higher = more cells surviving (less toxic)
# Experimental context: 1000 nM; exposure time: 72 h
Where a name gives a salt, the structure may show the parent alone.

Compound	surviving fraction
CC1=C(/C=C/C(C)=C/C=C/C(C)=C/C(=O)Nc2ccc(O)cc2)C(C)(C)CCC1 [Retinoic acid p-hydroxyanilide]	0.927
COc1cc2ncnc(Nc3cccc(Br)c3)c2cc1OC	0.767
C[C@]12CC[C@H](O)C[C@H]1CC[C@@H]1[C@@H]2C[C@@H](O)[C@]2(C)[C@@H](C3=CC(=O)OC3)CC[C@]12O [Digoxigenin]	0.603
N=c1ccn2c(n1)O[C@H]1[C@H](O)[C@@H](CO)O[C@H]12 [Ancitabine hydrochloride]	0.394
COc1nc(C)nc(Cl)c1NC1=NCCN1 [Moxonidine]	1.21
C=C(C)[C@H]1Cc2c(ccc3c2O[C@@H]2COc4cc(OC)c(OC)cc4[C@@H]2C3=O)O1 [Rotenone]	0.385

---

# Tested on: E28 (patient-derived glioblastoma stem cells of classical subtype)
# Experiment summary: phenotypic distance (Euclidean, principal components) from DMSO controls (arbitrary units); higher = stronger morphological change
# Experimental context: 4.1 nM; exposure time: 72 h
phenotypic distance reference
Quantity kind: phenotypic distance

Molecule	Recorded measurement
CN[C@@H](C)C(=O)N[C@H](C(=O)N1CCC[C@H]1C(=O)N[C@H]1c2ccccc2C[C@H]1OCC#CC#CCO[C@@H]1Cc2ccccc2[C@@H]1NC(=O)[C@@H]1CCCN1C(=O)[C@@H](NC(=O)[C@H](C)NC)C1CCCCC1)C1CCCCC1	0.701
Cc1cc(/C=C/c2ccc3cc(N(C)C)ccc3[n+]2C)c(C)n1-c1ccccc1 [Pyrvinium pamoate]	0.873
CC(=O)CC(c1ccc([N+](=O)[O-])cc1)c1c(O)c2ccccc2oc1=O (stereo not drawn)	1.02

---

# Tested on: E34
# Experiment summary: phenotypic distance (Euclidean, principal components) from DMSO controls (arbitrary units); higher = stronger morphological change
# Experimental context: 1000 nM; exposure time: 72 h
Counter-ions that a name gives are not always drawn.
Label 1.0 when phenotypic distance is at or above 2; anything below gets 0.0.

Molecule	Label
COc1cc2nc(N3CCN(C(=O)c4ccco4)CC3)nc(N)c2cc1OC [Prazosin hydrochloride]	0.0
Cc1ccc(C(=O)Nc2ccc(CN3CCN(C)CC3)c(C(F)(F)F)c2)cc1C#Cc1cnc2cccnn12	1.0
Cc1nc2ccccn2c(=O)c1CCN1CCC(C(=O)c2ccc(F)cc2)CC1	0.0
CC(NCCC(c1ccccc1)c1ccccc1)c1ccccc1 (centres undefined) [Fendiline hydrochloride]	0.0
CCCCC(CC)CNC(=N)NC(=N)NCCCCCCNC(=N)NC(=N)NCC(CC)CCCC (centres undefined) [Alexidine dihydrochloride]	1.0
NC(=O)c1ccccc1 [Benzamide]	0.0
COc1cccc2c(NCc3ccccc3)nc(-n3c(N)nc4ccccc43)nc12	0.0
Oc1c(Cl)cc(Cl)c(Cl)c1Cc1c(O)c(Cl)cc(Cl)c1Cl	1.0

---

phenotypic distance for assorted compounds
# Test system: FT3469 (normal neural stem cell line)
# Experiment summary: phenotypic distance (Euclidean, principal components) from DMSO controls (arbitrary units); higher = stronger morphological change
# Experimental context: 37 nM; exposure time: 72 h
Quantity kind: phenotypic distance

Compound	Recorded measurement
CCC(C)n1ncn(-c2ccc(N3CCN(c4ccc(OCC5COC(Cn6cncn6)(c6ccc(Cl)cc6Cl)O5)cc4)CC3)cc2)c1=O (centres undefined)	1.33
CCC(C)(C)C(=O)O[C@H]1C[C@@H](C)C=C2C=C[C@H](C)[C@H](CC[C@@H]3C[C@@H](O)CC(=O)O3)[C@H]21	2.33
COc1cc([C@@H]2c3cc4c(cc3[C@H](O)[C@H]3COC(=O)[C@H]23)OCO4)cc(OC)c1OC	4.76
Nc1ncn(C2OC(CO)C(O)C2O)c(=O)n1 (centres undefined)	0.486

---

# Tested on: E28
# Experiment summary: phenotypic distance (Euclidean, principal components) from DMSO controls (arbitrary units); higher = stronger morphological change
# Experimental context: 4.1 nM; exposure time: 72 h
Where a name gives a salt, the structure may show the parent alone.
Recorded phenotypic distance by entry

Compound	phenotypic distance
Cc1ncc(CO)c(CO)c1O [Pyridoxine hydrochloride]	0.428
COc1cc(N)c(Cl)cc1C(=O)NC1CCN(CCCOc2ccc(F)cc2)CC1OC (stereo unspecified) [Cisapride]	0.867
CN(c1nccc(=O)[nH]1)C1CCN(c2nc3ccccc3n2Cc2ccc(F)cc2)CC1	0.853
CN(C)C(=O)Oc1ccc[n+](C)c1 [Pyridostigmine iodide]	0.458
CCCCCCC[N+](CC)(CC)CCCCc1ccc(Cl)cc1 [Clofilium tosylate]	0.664
C=C(C)[C@H]1Cc2c(ccc3c2O[C@@H]2COc4cc(OC)c(OC)cc4[C@@H]2C3=O)O1	0.546
CC(C)C[C@H](NC(=O)CNC(=O)c1cc(Cl)ccc1Cl)B1OC(=O)C(CC(=O)O)(CC(=O)O)O1	3.84
Nc1ncnc2c1c(-c1ccc(Oc3ccccc3)cc1)cn2C1CCCC1	0.587
Cc1cc(Nc2cc(N3CCN(C)CC3)nc(Sc3ccc(NC(=O)C4CC4)cc3)n2)n[nH]1	0.827
Cc1nc2ccccn2c(=O)c1CCN1CCC(C(=O)c2ccc(F)cc2)CC1	0.892
CCC1=C[C@@H]2CN(C1)Cc1c([nH]c3ccccc13)[C@@](C(=O)OC)(c1cc3c(cc1OC)N(C)[C@H]1[C@@](O)(C(=O)OC)[C@H](OC(C)=O)[C@]4(CC)C=CCN5CC[C@]31[C@@H]54)C2 [Vinorelbine Tartrate]	0.584
COc1cc(/C=C/C(=O)N2CCC=CC2=O)cc(OC)c1OC	0.727
CC[C@@]1(O)C(=O)OCc2c1cc1n(c2=O)Cc2cc3cc(O)ccc3nc2-1 [Hydroxy Camptothecine]	3
CC1CNc2c(cccc2S(=O)(=O)N[C@@H](CCCNC(=N)N)C(=O)N2CC[C@@H](C)C[C@@H]2C(=O)O)C1 (stereo partly specified)	0.894
Nc1nc(Cl)nc2c1ncn2[C@@H]1O[C@H](CO)[C@@H](O)[C@@H]1F	1.24
O=C(Oc1cccc2cccnc12)c1ccccc1	1.39
